biological target: DNA gyrase (Escherichia coli) (UniProt P0AES6+P0AES4); assay: In vitro antibacterial activity against gram-negative organism Prov. stuartii CMX-640; type: functional; conditions: Providencia stuartii
Note to self: MIC under 0.4 µg/mL means T, ties and anything higher get F.

>>> category_label("Cc1c(N2C[C@H]3CCCN[C@H]3C2)c(F)cn2c(=O)c(C(=O)O)cc(C3CC3)c12 (single isomer, unassigned)")
"F"
>>> category_label("Cc1c(N2CCC(O)C2)c(F)cn2c(=O)c(C(=O)O)cc(C3CC3)c12 (stereo not drawn)")
"T"
>>> category_label("Cc1c(N2C[C@@H]3[C@@H](N)[C@@H]3C2)c(F)cn2c(=O)c(C(=O)O)cc(C3CC3)c12")
"F"
>>> category_label("Cc1c(N2C[C@@H]3CCCN[C@@H]3C2)c(F)cn2c(=O)c(C(=O)O)cc(C3CC3)c12 (stereo in doubt; 45n)")
"F"
>>> category_label("CCc1cc(C(=O)O)c(=O)n2ccc(N3CCC(N)C3)cc12.Cl (stereo not drawn)")
"F"

Lab note: next molecule to report on.
stdin: In plain terms, does Cc1c(N2CC[C@H](N)C2)c(F)cn2c(=O)c(C(=O)O)cc(C3CC3)c12 come in under 0.4 µg/mL for MIC?
stdout: T

====

Listed below: MIC values for each entry.
molecular target: DNA gyrase (Escherichia coli) (UniProt P0AES6+P0AES4); experiment: In vitro antibacterial activity against gram-negative organism Klebsiella pneumoniae ATCC 8045; format: functional
Quick note: give the figure in µg/mL, leave out the unit.

Previously resolved entries follow.
>>> result("CCc1cc(C(=O)O)c(=O)n2cc(F)c(N3CCC(N)C3)c(C)c12 (centres undefined)")
0.02
>>> result("Cc1c(N2CC[C@H](O)C2)c(F)cn2c(=O)c(C(=O)O)cc(C3CC3)c12")
0.01
>>> result("NC1CCN(c2c(F)cn3c(=O)c(C(=O)O)cc(C4CC4)c3c2F)C1 (centres undefined)")
0.01
>>> result("NC1CCN(c2nc3c(C4CC4)cc(C(=O)O)c(=O)n3cc2F)C1 (centres undefined)")
0.02
>>> result("O=C(O)c1cc(C2CC2)c2cc(N3CCNCC3)c(F)cn2c1=O")
0.01
>>> result("Cc1c(-n2ccnc2)c(F)cn2c(=O)c(C(=O)O)cc(C3CC3)c12")
0.2
>>> result("Cc1c(N2C[C@@H]3CCCN[C@@H]3C2)c(F)cn2c(=O)c(C(=O)O)cc(C3CC3)c12 (stereo in doubt; 45n)")
0.01
>>> result("Cc1c(N2CC(N)C2)c(F)cn2c(=O)c(C(=O)O)cc(C3CC3)c12")
0.01

Now for another entry.
stdin: Param item = Cc1c(N2C[C@H]3CCC[C@H](N)[C@H]3C2)c(F)cn2c(=O)c(C(=O)O)cc(C3CC3)c12 ; retrieve measured MIC.
stdout: 0.02

====

Listed below: MIC values for each entry.
experiment: In vitro antibacterial activity against gram-negative organism Pseudomonas aeruginosa DPHD-2862; type: functional; settings: Pseudomonas aeruginosa; read-out: MIC
Quick note: give the figure in µg/mL, leave out the unit.

>>> result("CO[C@@H]1CN(c2c(F)cn3c(=O)c(C(=O)O)cc(C4CC4)c3c2C)C[C@H]1N")
25
>>> result("Cc1c(N2CC[C@H](O)C2)c(F)cn2c(=O)c(C(=O)O)cc(C3CC3)c12")
3.1
>>> result("Cc1c(N2CCC(N)C2)c(F)cn2c(=O)c(C(=O)O)cc(C3CC3)c12 (stereo unspecified)")
0.78

stdin: Param item = Cc1c(N2CC[C@@]3(C[C@H]3N)C2)c(F)cn2c(=O)c(C(=O)O)cc(C3CC3)c12 ; retrieve measured MIC.
stdout: 6.2

stdin: Likewise for O=C(O)c1cc(C2CC2)c2cc(N3CCNCC3)c(F)cn2c1=O ?
stdout: 25

====

Listed below: MIC values for each entry.
biological target: DNA gyrase (Escherichia coli) (UniProt P0AES6+P0AES4); experiment: In vitro antibacterial activity against gram-positive organism Enterococcus faecium ATCC 8043; assay type: functional
Quick note: give the figure in µg/mL, leave out the unit.

Previously resolved entries follow.
>>> result("Cc1c(N2C[C@@H]3CCCN[C@@H]3C2)c(F)cn2c(=O)c(C(=O)O)cc(C3CC3)c12 (stereo in doubt; (S,S)45n)")
0.1
>>> result("Cc1c(N2C[C@@H]3C[C@H]2CN3)c(F)cn2c(=O)c(C(=O)O)cc(C3CC3)c12")
0.2
>>> result("Cc1c(N2C[C@H]3CCN[C@H]3C2)c(F)cn2c(=O)c(C(=O)O)cc(C3CC3)c12 (single isomer, unassigned)")
0.2
>>> result("CN1CCN(c2nc3c(-c4ccc(F)cc4F)cc(C(=O)O)c(=O)n3cc2F)CC1")
6.2
>>> result("Cc1c(-n2ccnc2)c(F)cn2c(=O)c(C(=O)O)cc(C3CC3)c12")
0.39

stdin: Param item = Cc1c(N2CCC(O)C2)c(F)cn2c(=O)c(C(=O)O)cc(C3CC3)c12 (centres undefined) ; retrieve measured MIC.
stdout: 0.05

stdin: Likewise for Cc1c(N2C[C@@H](C)N[C@@H](C)C2)c(F)cn2c(=O)c(C(=O)O)cc(C3CC3)c12 ?
stdout: 0.39

stdin: Likewise for Cc1c(N2CC[C@@H](N)C2)c(F)cn2c(=O)c(C(=O)O)cc(C3CC3)c12 ?
stdout: 0.05

stdin: Likewise for NC1CCN(c2c(F)cn3c(=O)c(C(=O)O)cc(C4CC4)c3c2F)C1 (centres undefined) ?
stdout: 0.78

====

experiment: In vitro antibacterial activity against gram-negative organism Pseudomonas aeruginosa 5007; format: functional; settings: Pseudomonas aeruginosa; read-out: MIC
Measurement Label: log10 MIC (log10 of the value in µg/mL)
Please be aware that the numbers have been log10-transformed from MIC in µg/mL.

Previously resolved entries follow.
>>> result("COc1ccc(-c2cc(C(=O)O)c(=O)n3cc(F)c(N4CCC(N)C4)nc23)cc1 (centres undefined)")
2.00
>>> result("Cc1c(N2CC[C@@]3(C[C@H]3N)C2)c(F)cn2c(=O)c(C(=O)O)cc(C3CC3)c12")
-0.41
>>> result("Cc1c(N2C[C@@H]3[C@@H](N)[C@@H]3C2)c(F)cn2c(=O)c(C(=O)O)cc(C3CC3)c12")
-0.70
>>> result("Cc1c(N2CCC(N(C)C)C2)c(F)cn2c(=O)c(C(=O)O)cc(C3CC3)c12 (centres undefined)")
-0.41
>>> result("Cc1c(-n2ccnc2)c(F)cn2c(=O)c(C(=O)O)cc(C3CC3)c12")
0.79

stdin: Param item = Cc1c(N2CCC(O)C2)c(F)cn2c(=O)c(C(=O)O)cc(C3CC3)c12 (centres undefined) ; retrieve measured log10 MIC.
stdout: -0.70

stdin: Likewise for CN1CCN(c2nc3c(-c4ccc(F)cc4F)cc(C(=O)O)c(=O)n3cc2F)CC1 ?
stdout: 0.79

stdin: Likewise for Cc1c(N2C[C@@H]3C[C@H]2CN3)c(F)cn2c(=O)c(C(=O)O)cc(C3CC3)c12 ?
stdout: -0.70

stdin: Likewise for Cc1c(N2C[C@@H](N)C[C@@H]2C)c(F)cn2c(=O)c(C(=O)O)cc(C3CC3)c12 ?
stdout: -0.70

stdin: Likewise for Cc1c(N2CC[C@@H](O)C2)c(F)cn2c(=O)c(C(=O)O)cc(C3CC3)c12 ?
stdout: -0.11

stdin: Likewise for CN1CCN(c2nc3c(-c4ccc(F)cc4)cc(C(=O)O)c(=O)n3cc2F)CC1 ?
stdout: 0.79

====

Listed below: MIC values for each entry.
target: DNA gyrase (Escherichia coli) (UniProt P0AES6+P0AES4); assay: In vitro antibacterial activity against gram-negative organism […] ATCC 13048; format: functional; conditions: Enterobacter aerogenes
Quick note: give the figure in µg/mL, leave out the unit.

Previously resolved entries follow.
>>> result("Cc1c(N2CC[C@@]3(C[C@H]3N)C2)c(F)cn2c(=O)c(C(=O)O)cc(C3CC3)c12")
0.05
>>> result("Cc1c(N2C[C@@H](N)C[C@@H]2C)c(F)cn2c(=O)c(C(=O)O)cc(C3CC3)c12")
0.05
>>> result("Cc1c(N2CCCNCC2)c(F)cn2c(=O)c(C(=O)O)cc(C3CC3)c12")
0.1
>>> result("Cc1c(N2CC[C@@H]3CNC[C@@H]32)c(F)cn2c(=O)c(C(=O)O)cc(C3CC3)c12")
0.05

Now for another entry.
stdin: Param item = COc1c(N2CCC(N)C2)c(F)cn2c(=O)c(C(=O)O)cc(C3CC3)c12 (stereo not given) ; retrieve measured MIC.
stdout: 0.05

====

target: DNA gyrase (Escherichia coli) (UniProt P0AES6+P0AES4); assay: In vitro antibacterial activity against gram-positive organism Enterococcus faecium ATCC 8043; assay type: functional
Note to self: MIC under 0.05 mg/L means Condition met, ties and anything higher get Condition not met.

Below are worked cases with known answers.
>>> category_label("CN1CCN(c2nc3c(-c4ccc(F)cc4)cc(C(=O)O)c(=O)n3cc2F)CC1")
"Condition not met"
>>> category_label("CN1CCN(c2nc3c(C4CC4)cc(C(=O)O)c(=O)n3cc2F)CC1")
"Condition not met"

stdin: In plain terms, does COc1ccc(-c2cc(C(=O)O)c(=O)n3cc(F)c(N4CCC(N)C4)nc23)cc1 (centres undefined) come in under 0.05 mg/L for MIC?
stdout: Condition not met

stdin: Likewise for NC1CCN(c2c(F)cn3c(=O)c(C(=O)O)cc(C4CC4)c3c2Cl)C1 (centres undefined) ?
stdout: Condition not met

stdin: Likewise for Cc1c(N2CC[C@@H]3CNC[C@@H]32)c(F)cn2c(=O)c(C(=O)O)cc(C3CC3)c12 ?
stdout: Condition not met

stdin: Likewise for Cc1c(N2CCC(CN)C2)c(F)cn2c(=O)c(C(=O)O)cc(C3CC3)c12 (centres undefined) ?
stdout: Condition met
